Measured pIC50 accompanies every entry in the list below.
- tested target: UniProt P09917
- Sequence (P09917 whole entry): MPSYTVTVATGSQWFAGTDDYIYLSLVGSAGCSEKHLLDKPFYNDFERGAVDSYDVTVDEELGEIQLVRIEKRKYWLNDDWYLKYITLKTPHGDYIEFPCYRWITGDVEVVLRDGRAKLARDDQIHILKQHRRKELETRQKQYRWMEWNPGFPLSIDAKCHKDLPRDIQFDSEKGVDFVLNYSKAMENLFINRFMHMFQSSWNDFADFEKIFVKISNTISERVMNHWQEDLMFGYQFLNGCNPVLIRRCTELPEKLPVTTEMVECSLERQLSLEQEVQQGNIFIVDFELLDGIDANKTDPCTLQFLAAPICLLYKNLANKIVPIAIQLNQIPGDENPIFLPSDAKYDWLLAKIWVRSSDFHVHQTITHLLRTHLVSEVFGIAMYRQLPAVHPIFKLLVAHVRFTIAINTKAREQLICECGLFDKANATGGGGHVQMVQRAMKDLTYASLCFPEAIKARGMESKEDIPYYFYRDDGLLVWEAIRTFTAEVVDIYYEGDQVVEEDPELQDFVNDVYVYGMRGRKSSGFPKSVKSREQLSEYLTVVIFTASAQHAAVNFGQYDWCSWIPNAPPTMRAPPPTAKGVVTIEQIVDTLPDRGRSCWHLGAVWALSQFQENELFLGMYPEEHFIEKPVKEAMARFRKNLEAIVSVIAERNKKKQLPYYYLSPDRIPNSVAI
- assay text: Inhibition of human recombinant 5-lipoxygenase in cell-free system preincubated for 10 mins before substrate arachidonic acid addition measured after 10 mins by RP-HPLC method
pIC50: −log10 of the molar value.

entry_smiles=O=C(O)c1ccc(Cn2cc(-c3ccc(-c4cccc(O)c4)cc3)nn2)c([N+](=O)[O-])c1 assay_metric=pIC50 readout_value="< 5.00"
entry_smiles=O=C(O)c1ccc(Cn2cc(-c3ccc(-c4ccc(O)cc4)cc3)nn2)c([N+](=O)[O-])c1 assay_metric=pIC50 readout_value=5.17
entry_smiles=Nc1ccc(-c2ccc(-c3cn(Cc4ccc(C(=O)O)cc4[N+](=O)[O-])nn3)cc2)cc1 assay_metric=pIC50 readout_value="< 5.00"
entry_smiles=O=C(O)c1ccc(S(=O)(=O)n2cc(-c3ccc(-c4ccccc4COc4cc(C(F)(F)F)ccc4Cl)cc3)nn2)cc1 assay_metric=pIC50 readout_value=5.71
entry_smiles=COc1cc(-c2ccc(-c3cn(Cc4ccc(C(=O)O)cc4[N+](=O)[O-])nn3)cc2)cc(OC)c1OC assay_metric=pIC50 readout_value="< 5.00"
entry_smiles=O=C(O)c1ccc(Cn2cc(-c3ccc(-c4ccccc4COc4cc(C(F)(F)F)ccc4Cl)cc3)nn2)cc1 assay_metric=pIC50 readout_value=5.83
entry_smiles=O=C(O)c1cccc(-c2ccc(-c3cn(Cc4ccc(C(=O)O)cc4[N+](=O)[O-])nn3)cc2)c1 assay_metric=pIC50 readout_value="< 5.00"

Below: the item to evaluate.
// O=C(O)c1ccc(Cn2cc(-c3ccc(-c4cccs4)cc3)nn2)c([N+](=O)[O-])c1 : pIC50 value = < 5.00

All values here come from ChEMBL document CHEMBL2040712.
